- Assay target: UniProt:P30543
- Assay info: Inhibition of [3H]-CGS- 21680 binding to Adenosine A2A receptor in rat brain membranes at 250 uM
- Assay type: cell membranes
Observation type: inhibition (%)

[I] Cn1c(=O)c2nc(C(F)(F)F)[nH]c2n(C)c1=O
[II] Cc1nc2c(=O)n(C)c(=O)n(C)c2[nH]1
Data request: Thinking about recorded inhibition values, which is higher, I or II ? Indicate your choice by writing its label.
Data returned: II

[a] Cn1c(-c2ccc(S(=O)(=O)O)cc2)nc2c1c(=O)[nH]c(=O)n2C
[b] Cn1c(-c2ccc(S(N)(=O)=O)cc2)nc2c1c(=O)[nH]c(=O)n2C
Data request: Quick one: lower inhibition, a or b ? Indicate your choice by writing its label.
Data returned: a

----------
- Assay target: UniProt P30543
pKi: −log10 of the molar value.
Observation type: pKi

[A] CCC/C=C/c1nc2c(=O)n(C)c(=O)n(C)c2[nH]1
[B] Cn1c(=O)c2c(nc(C3CCC3)n2C)n(C)c1=O
[C] CCCn1c(=O)c2[nH]c(-c3ccccc3)nc2n(CCC)c1=O
Data request: Put the above entries in order of falling pKi. Write the labels in rank order as requested.
Data returned: C, A, B

----------
- Assay target: Adenosine receptor A1 (Rattus norvegicus)
- Sequence (whole entry): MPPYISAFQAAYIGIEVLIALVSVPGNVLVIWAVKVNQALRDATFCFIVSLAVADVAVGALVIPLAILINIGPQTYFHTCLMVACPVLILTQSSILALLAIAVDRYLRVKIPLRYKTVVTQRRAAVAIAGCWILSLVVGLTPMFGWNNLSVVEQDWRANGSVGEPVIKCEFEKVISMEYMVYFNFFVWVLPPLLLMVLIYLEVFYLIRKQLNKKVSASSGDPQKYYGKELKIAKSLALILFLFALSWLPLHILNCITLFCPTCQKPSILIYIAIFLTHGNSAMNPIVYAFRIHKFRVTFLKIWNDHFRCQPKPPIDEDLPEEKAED
- Assay info: Inhibition of [3H]PIA binding to Adenosine A1 receptor in rat brain membranes at 100 uM
- Format: cell membranes
- Condition description: 250 uM, in the assay text read “250 uM” for “100 uM”
Observation type: inhibition (%)

Data request: I'd like to know its inhibition. The compound in question is "Cn1c(=O)c2c(nc(C(F)(F)F)n2C)n(C)c1=O"
Data returned: 8

Data request: I'd like to know its inhibition. The compound in question is "Cn1c(=O)c2[nH]c(Cl)nc2n(C)c1=O"
Data returned: 39

Data request: I'd like to know its inhibition. The compound in question is "Cn1c(=O)c2c(nc(-c3ccc(S(=O)(=O)O)cc3)n2C)n(C)c1=O"
Data returned: 3.3

[I] CCCn1c(=O)c2nc(C(F)(F)F)[nH]c2n(CCC)c1=O
[II] Cn1c(=O)c2c(nc(/C=C/C(=O)O)n2C)n(C)c1=O
Data request: Quick one: lower inhibition, I or II ? Indicate your choice by writing its label.
Data returned: II

----------
Quick record of Ki values for UniProtKB P30543.
Observation type: Ki (µM)

Example entries and their recorded answers appear below.
Data request: I'd like to know its Ki. The compound in question is "CCCn1c(=O)c2nc(-c3ccc(S(N)(=O)=O)cc3)[nH]c2n(CCC)c1=O"
Data returned: 0.075

Data request: I'd like to know its Ki. The compound in question is "CCCn1c(=O)c2[nH]c(-c3ccc(S(=O)(=O)O)cc3)nc2n(CCC)c1=O"
Data returned: 0.79

Data request: I'd like to know its Ki. The compound in question is "CCCn1c(=O)c2nc(-c3ccc(C(F)(F)F)cc3)[nH]c2n(CCC)c1=O"
Data returned: 0.042

Data request: I'd like to know its Ki. The compound in question is "Cn1c(=O)c2c(nc(-c3ccc(C(F)(F)F)cc3)n2C)n(C)c1=O"
Data returned: 16

[P] Cn1c(=O)c2c(nc(Br)n2C)n(C)c1=O
[Q] Cn1c(=O)c2nc(C3CCC3)[nH]c2n(C)c1=O
Data request: Thinking about recorded Ki values, which is higher, P or Q ? Indicate your choice by writing its label.
Data returned: P
